# EXPERIMENTAL_SYSTEM: HaPhy (Hafnia alvei phytase) (Hafnia alvei, UniProt H9TUK5)
# Construct: recombinant mature enzyme, purified, residues 1-416; expression details only in SI; monomer in the asymmetric unit; four disulphides
# Sequence (H9TUK5 34-446): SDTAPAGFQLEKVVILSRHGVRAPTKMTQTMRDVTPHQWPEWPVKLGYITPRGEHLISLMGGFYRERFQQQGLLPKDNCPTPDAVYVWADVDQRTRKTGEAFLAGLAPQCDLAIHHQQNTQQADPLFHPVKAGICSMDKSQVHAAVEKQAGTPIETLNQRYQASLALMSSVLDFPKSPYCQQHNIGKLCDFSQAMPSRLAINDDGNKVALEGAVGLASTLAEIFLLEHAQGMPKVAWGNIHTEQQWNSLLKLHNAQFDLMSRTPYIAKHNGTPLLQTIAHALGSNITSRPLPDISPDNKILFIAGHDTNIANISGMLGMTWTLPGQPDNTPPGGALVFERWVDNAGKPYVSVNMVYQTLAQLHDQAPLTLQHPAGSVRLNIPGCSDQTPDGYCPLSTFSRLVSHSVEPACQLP
# EXPERIMENTAL_PROTOCOL: isothermal titration calorimetry
pKd: −log10 of the molar value.
MEASURED_METRIC: pKd

Query: Request the reported pKd associated with O=S(=O)(O)O[C@H]1[C@H](OS(=O)(=O)O)[C@@H](OS(=O)(=O)O)[C@H](OS(=O)(=O)O)[C@@H](OS(=O)(=O)O)[C@H]1OS(=O)(=O)O [MIHS, myo-inositol hexakissulphate]
Reply: ~6.80
